- assay_system: human SOS1 (nucleotide exchange of K-Ras^G12C) (Homo sapiens)
- method_notes: Biochemical assay 2: K-Ras^G12C activation assay by hSOS1 at high GTP concentration (HTRF)
- test_parameters: high GTP; read-out: Assay 2 (KRAS-Activation by SOS high GTP) activity expressed as IC50
Listed here: items and their measured IC50.
The reply should be a number in nM, with the unit left off.

Worked set:
INSERT INTO assay_data (compound, recorded_metric, units_label, recorded_number) VALUES
  ('COc1cc2nc(C)nc(NC(C)c3ccc(-c4ccccc4N)s3)c2cc1OC (stereo not shown) [Example 243]', 'IC50', 'nM', 325),
  ('COc1cc2nc(C)nc(N[C@H](C)c3ccc(C)cc3)c2cc1OC [Example 195]', 'IC50', 'nM', 635),
  ('COc1cc2nc(C)nc(NC(C)c3ccc(-c4cc(Cl)ccc4CN)s3)c2cc1OC (stereo not shown) [Example 292]', 'IC50', 'nM', 38.7);

Let us move to another entry and its IC50.
Q: Need IC50, item COc1cc2nc(C)nc(N[C@H](C)c3cccc(-c4cnn(C)c4)c3)c2cc1OC [Example 338]
Ans: 838

---

- assay_system: human SOS1 (nucleotide exchange of K-Ras^G12C) (Homo sapiens, UniProt Q07889)
- method_notes: Biochemical assay 2: K-Ras^G12C activation assay by hSOS1 at high GTP concentration (HTRF)
- test_parameters: E-notation values; unit inferred; 50 μM GTP; read-out: Assay 2 (KRAS-Activation, high GTP) IC50
Listed here: items and their measured IC50.
The reply should be a number in nM, with the unit left off.

INSERT INTO assay_data (compound, assay_system, units_label, recorded_number) VALUES
  ('CNCc1ccccc1-c1sc(C(C)Nc2nc(C)nc3cc(OC)c(OC)cc23)cc1C (stereo not shown) [Example 402]', 'human SOS1 (nucleotide exchange of K-Ras^G12C) (Homo sapiens, UniProt Q07889)', 'nM', 75.2),
  ('Cc1ccc2nc(C)nc(N[C@H](C)c3cccc(Cl)c3)c2c1 [Example 404]', 'human SOS1 (nucleotide exchange of K-Ras^G12C) (Homo sapiens, UniProt Q07889)', 'nM', 1450),
  ('Cc1nc(N[C@H](C)c2cccc(Cl)c2)c2cc(-c3cnn(C)c3)ccc2n1 [Example 406]', 'human SOS1 (nucleotide exchange of K-Ras^G12C) (Homo sapiens, UniProt Q07889)', 'nM', 400);

Let us move to another entry and its IC50.
Q: Need IC50, item COc1cc2nc(C)nc(NC(C)c3sc(-c4ccccc4CNC(=O)OC(C)(C)C)cc3Cl)c2cc1OC (stereo not shown) [Example 429]
Ans: 3050

---

- assay_system: K-Ras^G12C : hSOS1 interaction (Homo sapiens)
- method_notes: Biochemical assay 1: K-Ras^G12C interaction assay with hSOS1 (HTRF)
- Type: binding
- test_parameters: read-out: Assay 1 (KRAS-SOS Interaction) activity expressed as IC50
recorded_metric: IC50 (nM)
The reply should be a number in nM, with the unit left off.

Worked set:
INSERT INTO assay_data (compound, units_label, recorded_number) VALUES
  ('COc1cc2nc(C)nc(N[C@@H](C)c3ccc(-c4cc(N)ccc4C)s3)c2cc1OC (racemic)', 'nM', 911),
  ('COc1cc2nc(C)nc(NC(C)c3cccc4nn(C)cc34)c2cc1OC (centres unmarked)', 'nM', 1520),
  ('COc1cc2nc(C)nc(N[C@@H](C)c3ccc(-c4cncc(C)c4)s3)c2cc1OC (racemic)', 'nM', 2370),
  ('COc1cc2nc(C)nc(NC(C)c3ccc(-c4ccccc4CNCC(=O)N4CCOCC4)s3)c2cc1OC (centres unmarked)', 'nM', 203),
  ('COc1cc2nc(C)nc(N[C@H](C)c3ccc(C#N)cc3)c2cc1OC', 'nM', 998);

Q: Need IC50, item CCNCc1ccccc1-c1ccc(C(C)Nc2nc(C)nc3cc(OC)c(OC)cc23)s1 (centres unmarked)
Ans: 71.6

Q: Need IC50, item CCCCNCc1ccccc1-c1ccc(C(C)Nc2nc(C)nc3cc(OC)c(OC)cc23)s1 (centres unmarked)
Ans: 97.6

Q: Need IC50, item COc1cc2nc(C)nc(N[C@@H](C)c3ccc(-c4ccc5c(c4)OCO5)s3)c2cc1OC (racemic)
Ans: 13600

---

- assay_system: human SOS1 (nucleotide exchange of K-Ras^G12C) (Homo sapiens, UniProt Q07889)
- method_notes: Biochemical assay 2: K-Ras^G12C activation assay by hSOS1 at high GTP concentration (HTRF)
- test_parameters: high GTP; read-out: Assay 2 (KRAS-Activation by SOS high GTP) activity expressed as IC50
recorded_metric: log10(IC50) (log10 of the value in nM)
Note the log scale: values are log10 of IC50 expressed in nM.

Worked set:
INSERT INTO results (molecule, assay_system, recorded_number) VALUES
  ('COc1cc2nc(C)nc(NC(C)c3ccc(-c4ccccc4C(C)=O)s3)c2cc1OC (centres unmarked)', 'human SOS1 (nucleotide exchange of K-Ras^G12C) (Homo sapiens, UniProt Q07889)', 3.53),
  ('COc1cc2nc(C)nc(NC(C)c3ccc(-c4ccccc4CN4CCOCC4)s3)c2cc1OC (centres unmarked)', 'human SOS1 (nucleotide exchange of K-Ras^G12C) (Homo sapiens, UniProt Q07889)', 2.71),
  ('COc1cc2nc(C)nc(NC(C)c3ccc(-c4ccc(F)c5ccccc45)s3)c2cc1OC (centres unmarked)', 'human SOS1 (nucleotide exchange of K-Ras^G12C) (Homo sapiens, UniProt Q07889)', 3.30);

Q: Need log10(IC50), item COc1ccc2cc(C(C)Nc3nc(C)nc4cc(OC)c(OC)cc34)ccc2c1 (centres unmarked)
Ans: 3.68

Q: Need log10(IC50), item COc1cc2nc(C)nc(N[C@H](C)c3cccc(-c4ccncc4C)c3)c2cc1OC
Ans: 2.95

Q: Need log10(IC50), item COc1cc2nc(C)nc(N[C@H](C)c3cccc(Br)c3)c2cc1OC
Ans: 2.39

Q: Need log10(IC50), item C/C=C(\C)c1ccc([C@H](C)Nc2nc(C)nc3cc(OC)c(OC)cc23)s1 (racemic)
Ans: 3.94

Q: Need log10(IC50), item COc1cc2nc(C)nc(NC(C)c3ccc(-c4cccc5cn[nH]c45)s3)c2cc1OC (centres unmarked)
Ans: 3.62

---

Listed here: items and their measured IC50.
- assay_system: K-Ras^G12C : hSOS1 interaction (Homo sapiens, UniProt Q07889)
- method_notes: Biochemical assay 1: K-Ras^G12C interaction assay with hSOS1 (HTRF)
- Format: binding
- test_parameters: read-out: Assay 1 (KRAS-SOS Interaction) activity expressed as IC50

Worked set:
INSERT INTO assay_data (molecule, result) VALUES
  ('COc1cc2nc(C)nc(NC(C)c3ccc(-c4cnn(CCN5CCCC5)c4)s3)c2cc1OC (stereo not shown)', '379 nM'),
  ('COc1cc2nc(C)nc(NC(C)c3ccc(-c4ccccc4CNC4CCCC4)s3)c2cc1OC (stereo not shown)', '129 nM'),
  ('COc1cc2nc(C)nc(NC(C)c3cccc4[nH]nc(C)c34)c2cc1OC (stereo not shown)', '2020 nM');

Let us move to another entry and its IC50.
Q: Record COc1cc2nc(C)nc(N[C@H](C)c3cccc(-c4cn[nH]c4)c3)c2cc1OCC1CC1 : what is its IC50 with K-Ras^G12C : hSOS1 interaction (Homo sapiens, UniProt Q07889)?
Ans: 342 nM

---

- assay_system: human SOS1 (nucleotide exchange of K-Ras^G12C) (Homo sapiens, UniProt Q07889)
- method_notes: Biochemical assay 2: K-Ras^G12C activation assay by hSOS1 at high GTP concentration (HTRF)
- test_parameters: high GTP; read-out: Assay 2 (KRAS-Activation by SOS high GTP) activity expressed as IC50
recorded_metric: IC50 (nM)
The reply should be a number in nM, with the unit left off.

INSERT INTO measurements (molecule, recorded_number) VALUES
  ('COc1cc2nc(C)nc(N[C@@H](C)c3ccc(-c4ccccc4OC(F)(F)F)s3)c2cc1OC (racemic) [Example 150]', 13200),
  ('COc1ncc(-c2ccc([C@H](C)Nc3nc(C)nc4cc(OC)c(OC)cc34)s2)cn1 (racemic) [Example 172]', 7330),
  ('COc1cc2nc(C)nc(N[C@H](C)c3cccc(-c4cccc(-c5nnc(C)o5)c4)c3)c2cc1OC [Example 55]', 629),
  ('COc1cc2nc(C)nc(N[C@H](C)c3cccc(S(C)(=O)=O)c3)c2cc1OC [Example 198]', 518),
  ('COc1cc2nc(C)nc(NC(C)c3cccs3)c2cc1OC (stereo not shown) [Example 347]', 9050);

Let us move to another entry and its IC50.
Q: Need IC50, item COc1cc2nc(C)nc(NC(C)c3ccc(-c4cnc5n4CCC5)s3)c2cc1OC (stereo not shown) [Example 219]
Ans: 570
